Test system: HT29 colon
Assay remarks: NCI-60 one-dose screen, 48 h
Test context: 10 µM unless noted
The panel holds about 83,000 compounds, 20% with a hit somewhere; the sample as a whole holds those more often. The source made the active and inactive calls. The calls were made as follows: active = growth percent below 10; inactive = the rest.
Hi! Could you answer with just one of these? YES for active, NO for inactive

Solved entries:
compound=Cn1cc(-c2nnc(-c3cn(C)c4ncccc34)o2)c2ccccc21 class_assignment=NO
compound=O=C(N/N=C/c1ccc([N+](=O)[O-])cc1)c1ccc(Br)o1 class_assignment=NO
compound=Brc1ccc(-c2nnc3c4[nH]ccc4ncn23)cc1 class_assignment=NO
compound=C=C(C)[C@@H]1CC[C@]2(C(=O)O)CC[C@]3(C)[C@H](CC[C@@H]4[C@@]5(C)C/C(=C/c6ccco6)C(=O)C(C)(C)[C@@H]5CC[C@]43C)[C@@H]12 class_assignment=YES
compound=COc1ccc2[nH]c(C(=O)N3CCN(C(=O)OCc4ccc5c(Br)cc(Br)c(O)c5n4)CC3)cc2c1 class_assignment=YES
compound="CCN(CC)CCCC(C)Nc1ccnc2cc(Cl)c(SCc3ccccc3)cc12 (stereo not drawn)" class_assignment=YES
compound=O=C(O)CSCc1nnc2n(Cc3ccccc3)c(=O)c3c4c(sc3n12)CCCC4 class_assignment=NO
compound=O=[N+]([O-])c1cccc(/C=C/c2ccc3ccccc3n2)c1 class_assignment=NO

Write down the call the test reported for this compound. Item: COc1ccc(-c2c(C)nn3c(NCCN4CCOCC4)cc(C)nc23)cc1OC
NO

Each compound tested received a call. Report the one for COc1ccc2nc3c(cc2c1)C(=O)CC(C(F)(F)F)C3 (stereo not drawn) .
NO

For CC(C)=CCC[C@](C)(O)[C@H]1CC[C@]2(C)[C@@H]1CC[C@@H]1[C@@]3(C)CC[C@H](OC(=O)CCC(=O)O)C(C)(C)[C@@H]3CC[C@]12C , which call appears in the assay record?
YES

* * *

Test system: SNB-19 CNS
Assay remarks: NCI-60 one-dose screen, 48 h
Test context: 10 µM unless noted
About 83,000 compounds went through this panel and 20% of them were active in at least one assay; those are over-represented in the sample as a whole. Active and inactive are the calls of the source. How the source made its calls: active means growth percent below 10; inactive means the rest.
Lab note: assign the record to one of active, inactive

Check out these entries, answers already filled in.
compound=COc1cc(/C=C/C(=O)/C=C/c2ccc(-n3ccnc3C)cc2)ccc1O class_assignment=inactive
compound=CCCCCCCCCCCCNC(=S)N/N=C/c1ccccc1O class_assignment=inactive
compound=Cc1ccc(S(=O)(=O)n2cc(C(=O)C(=O)N3CCCCC3)c3ccccc32)cc1 class_assignment=inactive
compound=CCOc1ccccc1/C=N\Nc1ccc(S(=O)(=O)c2ccc(N/N=C/c3ccccc3OCC)cc2)cc1 class_assignment=inactive
compound=O=C(Nc1cccc(C2=NCCN2)c1)c1cccc(C(=O)Nc2cccc(C3=NCCN3)c2)c1 class_assignment=inactive

Look up the recorded call for CCN(CC)CCCOc1ccc2c(c1)O/C(=C\c1cccc(OC)c1)C2=O in this test.
inactive

Entry Cc1cccc(C[C@H](NC(=O)Nc2ccc(Cl)cc2F)C(=O)N[C@@H]2C(=O)N3C[C@H](O)C[C@H]3C(=O)N3CCN(C)C[C@H]3C(=O)N[C@@H](C)C(=O)N3C[C@H](C)C[C@H]3C(=O)O[C@H]2C)c1 : call = ?
inactive

Per the assay record, what outcome was assigned to COc1cc2c(c(OC)c1OC)-c1cc(I)c(O)cc1[C@@H](NC(C)=O)CC2 ?
inactive

Hello, I am checking results. What call was entered for COc1ccc(NCc2cn(-c3ccc(C(=O)O)cc3)nc2-c2ccc(C(=O)O)cc2)cc1C(F)(F)F ?
inactive

Please share the test call associated with Nn1c(Nc2ccc(S(=O)(=O)Nc3ncccn3)cc2)nnc(/C=C/c2c(O)ccc3ccccc23)c1=O .
inactive

* * *

Test system: UACC-257 melanoma
Assay remarks: NCI-60 one-dose screen, 48 h (100 = growth as untreated, 0 = no growth, -100 = all killed)
Test context: 10 µM unless noted
The panel holds about 83,000 compounds, 20% with a hit somewhere; the sample as a whole holds those more often. Active and inactive are the calls of the source. The calls were made as follows: active = growth percent below 10; inactive = the rest.
This section presents compounds with their documented growth values.

Past entries and their recorded results:
compound=CC(C)c1ccc(C(=O)Nc2nc3ccc(O)cc3s2)cc1 target="UACC-257 melanoma" observable=growth recorded_measurement="25.9% (inactive)"
compound=CC(C)c1ccc(/C=N/N=C(N)N)cc1 target="UACC-257 melanoma" observable=growth recorded_measurement="77% (inactive)"
compound=O=C(CCCSc1nc(-c2ccccc2)cc(-c2ccccc2)n1)NO target="UACC-257 melanoma" observable=growth recorded_measurement="-2.82% (active)"

Please report growth for the following compound: C=C(C)[C@@H]1CC[C@]2(C(=O)NCCCN)CC[C@]3(C)[C@H](CC[C@@H]4[C@@]5(C)CC[C@H](O)C(C)(C)[C@@H]5CC[C@]43C)[C@@H]12
-46.7% [100 µM] (active)

Supply growth value. Item: Cc1ccc(S(=O)(=O)Oc2ccc([N+](=O)[O-])cc2[N+](=O)[O-])cc1
86.2% (inactive)

Write down growth measured for item Cn1cc(-c2nnc(-c3ccccc3)s2)c2cc(Br)cnc21
100% (inactive)

* * *

System: COLO 205 colon
Assay remarks: NCI-60 one-dose screen, 48 h (100 = growth as untreated, 0 = no growth, -100 = all killed)
Test context: 10 µM unless noted
Compounds without any hit were thinned out: in the full panel of roughly 83,000, 20% have a hit. Calls of active or inactive are those of the source. The calls were made as follows: active = growth percent below 10; inactive = the rest.
Measured growth accompanies every entry in the list below.

Please review the following examples before continuing.
substance_smiles=CCCN1CC(c2ccc(OC)c(OC)c2)=C(c2cn(C(=O)OCC)c3ccccc23)C1=O observable=growth recorded_measurement="41.7% (inactive)"
substance_smiles=CC1=CC[C@@H]2C(C)(C)[C@@H](O)CC[C@@]2(C)[C@@H]1COc1ccc2ccc(=O)oc2c1 observable=growth recorded_measurement="55.3% (inactive)"
substance_smiles=Cc1ccc(-c2cn(C/C=C3\C=CN(S(=O)(=O)c4ccccc4)CC3)nn2)cc1 observable=growth recorded_measurement="129% (inactive)"

Now let's try a different one.
Give recorded growth. CC1(C)CC[C@]2(C(=O)OC(=O)[C@]34CCC(C)(C)C[C@@H]3C3=CC[C@@H]5[C@@]6(C)CCC(=O)C(C)(C)[C@@H]6CC[C@@]5(C)[C@]3(C)CC4)CC[C@]3(C)C(=CC[C@@H]4[C@@]5(C)CCC(=O)C(C)(C)[C@@H]5CC[C@]43C)[C@H]2C1
88.6% [100 µM] (inactive)

* * *

# growth listing for each entry below
System: SF-539 CNS
Assay remarks: NCI-60 one-dose screen, 48 h (100 = growth as untreated, 0 = no growth, -100 = all killed)
Test context: 10 µM unless noted
Compounds without any hit were thinned out: in the full panel of roughly 83,000, 20% have a hit. Active and inactive are the calls of the source. Rule for the calls: active = growth percent below 10; inactive = the rest.

Known results for compounds:
compound="CCc1ccc(-c2ccc(COc3ccc(CC4SC(=O)NC4=O)cc3)cc2)cc1 (configuration not stated)" recorded_measurement="77% (inactive)"
compound=Nc1cc(C(=O)O)[nH]c(=S)n1 recorded_measurement="104% (inactive)"
compound=NC(=S)Cc1ccccc1 recorded_measurement="95.5% (inactive)"
compound=Cc1cc[n+](CCCCCCCCCC[n+]2ccc(C)cc2)cc1 recorded_measurement="99.2% (inactive)"
compound=Cc1ccc(-c2cc(O)c(-c3ccc(C)cc3C)cc2O)c(C)c1 recorded_measurement="47.8% (inactive)"

Assign growth to the following record: CC(C)[C@H]1CCC2=C3CC[C@]45OC(=O)[C@@]6(CCC(C)(C)C[C@H]64)CC[C@@]5(C)[C@]3(C)CC[C@@]21C
71.6% [100 µM] (inactive)

Determine its reported growth: Cc1cc(C)c(-c2cc(O)c(-c3c(C)cc(C)cc3C)cc2O)c(C)c1
-25.8% (active)

Supply measured growth of CCCCOC(=O)c1cccc([N+](=O)[O-])c1 in your reply.
105% (inactive)

For O=S(=O)(c1ccc(N/N=C\c2ccccc2Cl)cc1)c1ccc(N/N=C/c2ccccc2Cl)cc1 , write its growth.
89.7% (inactive)

# return recorded growth for entry COc1ccc(/C=C(/C2=NCCN2)n2ccc3ccccc32)cc1
92.7% (inactive)

Supply measured growth of CC1Cc2c(Cl)ncnc2N(C)c2ccccc21 (configuration not stated) in your reply.
33% (inactive)

Name the recorded growth of the compound listed here: CC(C)C1=NOC(=O)C1=Cc1cn(-c2ccccc2)nc1-c1ccccc1
91.3% (inactive)

Return growth for the following compound: CCOc1ccc(/C=C(\C#N)c2cc3ccccc3[nH]2)cc1
68.3% (inactive)

* * *

Tested on: UACC-257 melanoma
Assay remarks: NCI-60 one-dose screen, 48 h (100 = growth as untreated, 0 = no growth, -100 = all killed)
Test context: 10 µM unless noted
Method: Cells are grown in 96 well plates and exposed to the test compound for 48 hours. Compounds are tested at a single concentration, which is 10^-5 M for most compounds. The reported endpoint is percent growth (GI% or GIPRCNT), where numbers from 0 - 100% represent growth inhibition, and numbers from -100% - 0 represent cell death. For example, a value of 40 represents 60% growth inhibition. A value of 0 means no net growth occurred over the course of the experiment. […]
This is part of a sample that, as a whole, favours compounds with a hit. Of some 83,000 tested, about 20% had one in any assay.
Observable: growth (%)
// units = %; emit number, no label

Completed entries (count: 2):
substance_smiles=O=C(CCN1CCCCC1)c1ccc(Cl)cc1 units_symbol=% recorded_measurement=108
substance_smiles=Cc1cccc(C[C@H](NC(=O)Nc2ccc(Cl)cc2F)C(=O)N[C@@H]2C(=O)N3C[C@H](O)C[C@H]3C(=O)N3CCN(C)C[C@H]3C(=O)N[C@@H](C)C(=O)N3C[C@H](C)C[C@H]3C(=O)O[C@H]2C)c1 units_symbol=% recorded_measurement=22.6

In one line, give reported growth of the entry CN(C)C(=S)Sc1ccc([N+](=O)[O-])cc1[N+](=O)[O-] .
41.4

Return value of growth for input CC(C)C1=NOC(=O)C1=Cc1cn(-c2ccccc2)nc1-c1ccc(Cl)cc1 , no commentary.
105

Indicate the recorded growth value for this molecule: CC(C)c1ccc(C(=O)Nc2sc3c(c2C#N)CCC(=O)C3)cc1
-2.97

Please give the documented growth of CCc1cccc(Cl)c1
94

Quickly give me recorded growth for O=C(Nc1ccc(F)cc1)c1ccccc1
107

Note growth for the molecule shown: COc1cc2c(c(OC)c1OC)-c1ccc(NNC(N)=S)c(=O)cc1[C@@H](NC(C)=O)CC2
57.2

Quick one: give measured growth for CCOC(=O)C(=Cc1ccccc1[N+](=O)[O-])C(=O)OCC
42

Tell me its growth given CCN(CC)c1ccc(/C=C/c2ccc3cc(C)ccc3[n+]2CC)cc1 as the entry.
-19
